- assay text: Dissociation constant (pKa3)
- Format: physicochemical
- run parameters: read-out: pKa3
value kind: pKa

>  <compound>
Cc1cc(C)c(CP(=O)(O)O)c(C)c1CP(=O)(O)O

>  <reported measurement>
7.4

$$$$
>  <compound>
O=P(O)(O)C(F)(F)c1ccc(C(F)(F)P(=O)(O)O)cc1

>  <reported measurement>
4.82

$$$$
>  <compound>
O=P(O)(O)Cc1ccc(CP(=O)(O)O)cc1

>  <reported measurement>
7.03

$$$$
>  <compound>
O=P(O)(O)Cc1ccc(C(F)(F)P(=O)(O)O)cc1

>  <reported measurement>
5.27

$$$$
>  <compound>
O=P(O)(O)C(F)c1cccc(C(F)P(=O)(O)O)c1 (stereo unspecified)

>  <reported measurement>
6.01

$$$$
>  <compound>
O=P(O)(O)Cc1ccc(C(F)P(=O)(O)O)cc1 (stereo unspecified)

>  <reported measurement>
6.3

$$$$
>  <compound>
O=P(O)(O)C(F)c1ccc(C(F)P(=O)(O)O)cc1 (stereo unspecified)

>  <reported measurement>
6.02

$$$$
>  <compound>
O=P(O)(O)Cc1cccc(CP(=O)(O)O)c1

>  <reported measurement>
7.11

$$$$
>  <compound>
O=P(O)(O)Cc1ccccc1CP(=O)(O)O

>  <reported measurement>
7.1

$$$$
>  <compound>
O=P(O)(O)C(O)c1cccc(C(O)P(=O)(O)O)c1 (stereo unspecified)

>  <reported measurement>
6.78

$$$$
>  <compound>
O=P(O)(O)Cc1cccc(C(F)(F)P(=O)(O)O)c1

>  <reported measurement>
5.04

$$$$

----------
- assay text: Dissociation constant (pKa4)
- Assay type: physicochemical
- run parameters: read-out: pKa4
Assign met to entries whose pKa meets or exceeds 7; assign not met to the rest.

>  <compound>
O=P(O)(O)Cc1cccc(CP(=O)(O)O)n1

>  <class label>
met

$$$$
>  <compound>
O=P(O)(O)C(F)c1cccc(C(F)P(=O)(O)O)c1 (stereo not drawn)

>  <class label>
not met

$$$$
>  <compound>
Cc1cc(C)c(C(F)(F)P(=O)(O)O)cc1C(F)(F)P(=O)(O)O

>  <class label>
not met

$$$$
>  <compound>
O=P(O)(O)C(F)c1ccc(C(F)P(=O)(O)O)cc1 (stereo not drawn)

>  <class label>
not met

$$$$
>  <compound>
O=P(O)(O)Cc1cccc(C(F)(F)P(=O)(O)O)c1

>  <class label>
not met

$$$$
>  <compound>
Cc1cc(C)c(CP(=O)(O)O)c(C)c1CP(=O)(O)O

>  <class label>
met

$$$$
>  <compound>
O=P(O)(O)C(O)c1cccc(C(O)P(=O)(O)O)n1 (stereo not drawn)

>  <class label>
met

$$$$
>  <compound>
O=P(O)(O)Cc1cccc(P(=O)(O)O)c1

>  <class label>
met

$$$$
>  <compound>
O=P(O)(O)C(F)(F)c1cccc(C(F)(F)P(=O)(O)O)n1

>  <class label>
not met

$$$$
>  <compound>
O=P(O)(O)Cc1ccccc1CP(=O)(O)O

>  <class label>
met

$$$$
>  <compound>
O=P(O)(O)Cc1cccc(CP(=O)(O)O)c1

>  <class label>
met

$$$$
>  <compound>
O=P(O)(O)C(F)(F)c1ccc(C(F)(F)P(=O)(O)O)cc1

>  <class label>
not met

$$$$
>  <compound>
O=P(O)(O)Cc1ccc(C(F)P(=O)(O)O)cc1 (stereo not drawn)

>  <class label>
met

$$$$
>  <compound>
Cc1cc(C)c(CP(=O)(O)O)cc1CP(=O)(O)O

>  <class label>
met

$$$$
>  <compound>
O=P(O)(O)C(O)c1cccc(C(O)P(=O)(O)O)c1 (stereo not drawn)

>  <class label>
met

$$$$
>  <compound>
O=P(O)(O)Cc1ccc(C(F)(F)P(=O)(O)O)cc1

>  <class label>
not met

$$$$
>  <compound>
O=P(O)(O)c1cccc(C(O)P(=O)(O)O)c1 (stereo not drawn)

>  <class label>
met

$$$$
>  <compound>
C=C(CP(=O)(O)O)CP(=O)(O)O

>  <class label>
met

$$$$
>  <compound>
O=P(O)(O)Cc1ccc(CP(=O)(O)O)cc1

>  <class label>
met

$$$$
>  <compound>
O=P(O)(O)Cc1cccc(C(O)P(=O)(O)O)c1 (stereo not drawn)

>  <class label>
met

$$$$
>  <compound>
O=P(O)(O)C(F)c1cccc(C(F)P(=O)(O)O)n1 (stereo not drawn)

>  <class label>
not met

$$$$
